- TARGET_SYSTEM: T1, FZD8 cysteine-rich domain (CRD), MYC-tagged and GPI-anchored on CHO cells (human, UniProt Q498S8 31-155 (rat entry), GPI anchor)
- T1 construct: also called FZD8 CRD; CHO-myc-FZDGPI; not shown: MYC tag and GPI anchor signal
- T1 sequence: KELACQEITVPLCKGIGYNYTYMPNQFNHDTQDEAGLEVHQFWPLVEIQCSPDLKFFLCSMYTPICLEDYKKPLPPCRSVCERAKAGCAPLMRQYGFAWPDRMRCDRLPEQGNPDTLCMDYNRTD
- ASSAY_TEXT: flow cytometry, CHO-CRD cells;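 also: flow cytometry of Fab binding to CHO cells overexpressing a Frizzled CRD, with binding defined as median fluorescence over twice that of CHO cells lacking any Frizzled CRD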
RECORDED_METRIC: median fluorescence
Kindly provide the number alone.

Some solved cases for reference:
{"BINDER": "Fab-2919 (Fab, V domains shown, Fab) VH: EVQLVESGGGLVQPGGSLRLSCAASGFNISYSYIHWVRQAPGKGLEWVASIYSSSGSTSYADSVKGRFTISADTSKNTAYLQMNSLRAEDTAVYYCARGAIDYWGQGTLVTVSS VL: DIQMTQSPSSLSASVGDRVTITCRASQSVSSAVAWYQQKPGKAPKLLIYSASSLYSGVPSRFSGSRSGTDFTLTISSLQPEDFATYYCQQWYSSGHVLITFGQGTKVEIK", "RECORDED_METRIC": "median fluorescence", "MEAS_VALUE": 20.5}
{"BINDER": "Fab-2901 (Fab, V domains shown, Fab; also called Fv-2901) VH: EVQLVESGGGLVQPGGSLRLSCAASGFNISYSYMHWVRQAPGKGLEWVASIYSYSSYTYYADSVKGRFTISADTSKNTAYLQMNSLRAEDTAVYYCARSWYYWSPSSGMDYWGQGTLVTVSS VL: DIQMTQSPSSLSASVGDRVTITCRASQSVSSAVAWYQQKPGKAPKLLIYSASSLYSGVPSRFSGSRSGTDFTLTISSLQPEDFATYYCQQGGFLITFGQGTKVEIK", "RECORDED_METRIC": "median fluorescence", "MEAS_VALUE": 10.9}

Now look at this one.
Sample Fab-2920 (Fab, V domains shown, Fab) VH: EVQLVESGGGLVQPGGSLRLSCAASGFNISYYYIHWVRQAPGKGLEWVASIYPSSGSTSYADSVKGRFTISADTSKNTAYLQMNSLRAEDTAVYYCARGGMDYWGQGTLVTVSS VL: DIQMTQSPSSLSASVGDRVTITCRASQSVSSAVAWYQQKPGKAPKLLIYSASSLYSGVPSRFSGSRSGTDFTLTISSLQPEDFATYYCQQWFAGALITFGQGTKVEIK ; median fluorescence observed: 7.5

Provenance of the data: patent US20210253718A1
